Target: T1, GDF11 (UniProt O95390 299-407)
T1 construct: also called Growth and Differentiation Factor-11; BMP11
T1 sequence (looked up): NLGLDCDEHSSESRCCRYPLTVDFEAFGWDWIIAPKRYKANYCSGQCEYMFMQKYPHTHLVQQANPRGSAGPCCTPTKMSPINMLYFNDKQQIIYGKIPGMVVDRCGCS
Test: cell-based or functional assay
Label Met when IC50 (ng/mL), GDF-11, reporter assay, conditioned media is strictly below 70 ng/mL; at or above that, label Not met.

Please review the entries below; each comes with its answer.
>>> qualitative_label("ActRIIB(23-131)-hFc (Fc fusion, not shown: a dimerising Fc or GST) EAETRECIYYNANWELERTNQSGLERCEGEQDKRLHCYASWRNSSGTIELVKKGCWLDDFNCYDRQECVATEENPQVYFCCCEGNFCNERFTHLPEAGGPEVTYEPPPT")
"Met"
>>> qualitative_label("ActRIIB(21-131)-hFc (Fc fusion, not shown: a dimerising Fc or GST) RGEAETRECIYYNANWELERTNQSGLERCEGEQDKRLHCYASWRNSSGTIELVKKGCWLDDFNCYDRQECVATEENPQVYFCCCEGNFCNERFTHLPEAGGPEVTYEPPPT")
"Not met"

# strict comparison: is reported IC50 (ng/mL), GDF-11, reporter assay, conditioned media < 70 ng/mL? input = ActRIIB(20-131)-hFc (Fc fusion, not shown: a dimerising Fc or GST) GRGEAETRECIYYNANWELERTNQSGLERCEGEQDKRLHCYASWRNSSGTIELVKKGCWLDDFNCYDRQECVATEENPQVYFCCCEGNFCNERFTHLPEAGGPEVTYEPPPT
Not met
